TARGET UNDER TEST: Avi-KRAS G12V (1-169) GppNHp/RAF1 RBD-3xFLAG (52-151) (Homo sapiens, UniProt P01116, G12V)
Construct: Avi-KRAS G12V (1-169)
Sequence (P01116 1-169 isoform P01116-2 G12V): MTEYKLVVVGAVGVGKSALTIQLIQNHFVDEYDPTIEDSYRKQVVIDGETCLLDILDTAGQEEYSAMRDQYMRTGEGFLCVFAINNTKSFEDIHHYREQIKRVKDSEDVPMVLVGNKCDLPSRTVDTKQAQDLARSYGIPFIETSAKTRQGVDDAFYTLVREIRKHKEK
TEST DESCRIPTION: Raf1-KRAS G12V-GppNHP disruption HTRF assay (Biological Example 1)
Type: binding
CONDITION LABEL: KRAS G12V-GppNHp/RAF1 RBD HTRF
Method: A protein:protein interaction (PPI) Homogeneous Time Resolved Fluorescence (HTRF) assay was used to determine the effectiveness of compounds of the present disclosure in disrupting KRAS protein and effector RAF1 binding. The assay buffer included: 50 mM Tris pH 7.5, 100 mM NaCl, 5 mM MgCl2, 0.1% BSA, 0.01% Tween, and 10% DMSO. The bead buffer included: 50 mM Tris pH 7.5, and 0.01% Tween 20. […] Data was reported as percentage of activity, with DMSO as 100%. Data was plotted and analyzed using Prism 8.
pIC50: −log10 of the molar value.

COMPOUND STRING	TARGET UNDER TEST	pIC50
CC(=O)N1C[C@H](N(C)c2nc(OC[C@@]34CCCN3C[C@H](F)C4)nc3c(F)c(-c4ccc(F)c5sc(N)c(C#N)c45)c(C(F)(F)F)cc23)C[C@@H]1C	Avi-KRAS G12V (1-169) GppNHp/RAF1 RBD-3xFLAG (52-151) (Homo sapiens, UniProt P01116, G12V)	6.00 to 7.00
C[C@H]1C[C@H](N(c2nc(OC[C@@]34CCCN3C[C@H](F)C4)nc3c(F)c(-c4ccc(F)c5sc(N)c(C#N)c45)c(C(F)(F)F)cc23)C2CC2)CN1C(=O)C1CC1	Avi-KRAS G12V (1-169) GppNHp/RAF1 RBD-3xFLAG (52-151) (Homo sapiens, UniProt P01116, G12V)	6.00 to 7.00
C[C@@H]1[C@H](N(C)c2nc(OC[C@@]34CCCN3C[C@H](F)C4)nc3c(F)c(-c4ccc(F)c5sc(N)c(C#N)c45)c(C(F)(F)F)cc23)CCN1C(=O)C1(C)CC1	Avi-KRAS G12V (1-169) GppNHp/RAF1 RBD-3xFLAG (52-151) (Homo sapiens, UniProt P01116, G12V)	6.00 to 7.00

Every entry's value here was drawn from patent US20260042764A1.
